For Aurora B kinase (Homo sapiens, UniProt Q96GD4), measured IC50 is reported for the entries below.
PROPERTY_MEASURED: IC50 (nM)

{"columns": ["COMPOUND", "VALUE_OBSERVED"],
 "data": [
  ["NC(=O)C(=C1Nc2ccccc2N1)c1ncc(C(=O)NCCN2CCOCC2)c(C(F)(F)F)n1 [Compound 135A]", 20],
  ["NC(=O)/C(=C1\\Nc2ccc(Cn3ccnc3)cc2S1)c1nccc(C(F)(F)F)n1 [Compound 89A]", 5],
  ["CN1CCN(c2ccc3c(c2)S/C(=C(/C(N)=O)c2nccc(C(F)(F)F)n2)N3)CC1 [Compound 120A]", 9]
]}

[P] NC(=O)/C(=C1\Nc2ccc(C(=O)NCCCn3ccnc3)cc2S1)c1nccc(C(F)(F)F)n1 [Compound 46A]
[Q] NC(=O)/C(=C1\Nc2ccc(N3CCC(N)C3)cc2S1)c1nccc(C(F)(F)F)n1 (stereo not shown) [Compound 123A]
Endpoint returns whichever of P and Q has the numerically higher IC50. Pick one; state its label.
Q
